Recorded values, source ChEMBL document CHEMBL1157573.

Molecular target: Serine/threonine-protein kinase B-raf (Homo sapiens, UniProt P15056, V600E)
Sequence (P15056 2-766 V600E limits assumed): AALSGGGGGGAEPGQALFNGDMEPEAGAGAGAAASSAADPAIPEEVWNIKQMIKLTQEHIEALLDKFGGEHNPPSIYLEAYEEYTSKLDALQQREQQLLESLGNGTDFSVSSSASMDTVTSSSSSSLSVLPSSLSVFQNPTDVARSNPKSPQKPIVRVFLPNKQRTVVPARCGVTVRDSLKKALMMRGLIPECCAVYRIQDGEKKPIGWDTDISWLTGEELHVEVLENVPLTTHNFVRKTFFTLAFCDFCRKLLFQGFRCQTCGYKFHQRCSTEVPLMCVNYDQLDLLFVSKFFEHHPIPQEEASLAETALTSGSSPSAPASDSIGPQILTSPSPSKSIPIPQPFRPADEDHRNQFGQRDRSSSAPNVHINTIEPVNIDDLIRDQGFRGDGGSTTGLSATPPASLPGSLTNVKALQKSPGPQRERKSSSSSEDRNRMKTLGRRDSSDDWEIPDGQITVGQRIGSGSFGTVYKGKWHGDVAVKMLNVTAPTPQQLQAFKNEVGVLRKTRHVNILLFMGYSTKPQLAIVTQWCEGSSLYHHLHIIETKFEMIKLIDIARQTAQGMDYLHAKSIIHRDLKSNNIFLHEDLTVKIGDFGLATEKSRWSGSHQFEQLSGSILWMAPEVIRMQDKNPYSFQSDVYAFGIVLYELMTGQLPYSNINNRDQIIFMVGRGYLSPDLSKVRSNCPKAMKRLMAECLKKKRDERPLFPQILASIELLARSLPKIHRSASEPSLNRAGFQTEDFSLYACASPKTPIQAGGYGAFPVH
Assay: Inhibition of BRAF V600E mutant-mediated ERK phosphorylation in human WM266.4 cells
Type: cell-based
pIC50: −log10 of the molar value.
property: pIC50

Study these solved cases before continuing.
[
  {
    "chemical_string": "CN(C)c1cccc(C(=O)Nc2cccc(Oc3ccnc4[nH]c(=O)[nH]c34)c2)c1",
    "pIC50": 4.38
  },
  {
    "chemical_string": "O=C(Nc1cccc(Oc2ccnc3[nH]c(=O)[nH]c23)c1)c1ccc2sccc2c1",
    "pIC50": 4.18
  },
  {
    "chemical_string": "O=C(Nc1cccc(Oc2ccnc3[nH]c(=O)[nH]c23)c1)c1cccc(OC(F)(F)F)c1F",
    "pIC50": 5.17
  },
  {
    "chemical_string": "O=C(Nc1cccc(Oc2ccnc3[nH]c(=O)[nH]c23)c1)c1ccnn1-c1ccccc1",
    "pIC50": 4.04
  }
]

I: O=C(Nc1cc(F)cc(Oc2ccnc3[nH]c(=O)[nH]c23)c1)c1cccc(OC(F)(F)F)c1
II: CC(C)(C)c1cc(NC(=O)Nc2cccc(Oc3ccnc4[nH]c(=O)[nH]c34)c2)n(-c2ccc(F)cc2)n1
III: O=C(Nc1cccc(Oc2ccnc3[nH]c(=O)[nH]c23)c1)c1cccc2ccccc12
IV: Cc1cc(C(=O)Nc2cccc(Oc3ccnc4[nH]c(=O)[nH]c34)c2)n(C)n1
-- ask Order these by pIC50, descending, and give the full ranking. Respond with an ordered listing of the labels, as requested.
-- reply II, I, III, IV
(II: 5.71, I: 4.80, III: 4.54, IV: 4.10)

1: O=C(Nc1cccc(Oc2ccnc3[nH]c(=O)[nH]c23)c1)c1cc(Cl)cc(OC(F)(F)F)c1
2: O=C(Nc1cccc(Oc2ccnc3[nH]c(=O)[nH]c23)c1)c1cccc(Br)c1
3: O=C(Nc1cccc(Oc2ccnc3[nH]c(=O)[nH]c23)c1)c1cccc(OC(F)(F)F)c1
4: O=C(Nc1cccc(Oc2ccnc3[nH]c(=O)[nH]c23)c1)c1ccccc1OC(F)(F)F
-- ask Arrange these 4 compounds in increasing order of pIC50. Respond with an ordered listing of the labels, as requested.
-- reply 2, 4, 1, 3

I: O=C(Nc1cccc(Oc2ccnc3[nH]c(=O)[nH]c23)c1)Nc1ccc(Cl)c(C(F)(F)F)c1
II: O=c1[nH]c2nccc(Oc3cccc(NS(=O)(=O)c4ccc(Cl)c(C(F)(F)F)c4)c3)c2[nH]1
-- ask Quick check, higher pIC50 between I and II ? Your answer should be the label of the entry you select.
-- reply I
(I: 4.97, II: 4.18)
